# assay target: human OCT1 (hOCT1) (Homo sapiens, UniProt O15245)
# Sequence (O15245 1-554): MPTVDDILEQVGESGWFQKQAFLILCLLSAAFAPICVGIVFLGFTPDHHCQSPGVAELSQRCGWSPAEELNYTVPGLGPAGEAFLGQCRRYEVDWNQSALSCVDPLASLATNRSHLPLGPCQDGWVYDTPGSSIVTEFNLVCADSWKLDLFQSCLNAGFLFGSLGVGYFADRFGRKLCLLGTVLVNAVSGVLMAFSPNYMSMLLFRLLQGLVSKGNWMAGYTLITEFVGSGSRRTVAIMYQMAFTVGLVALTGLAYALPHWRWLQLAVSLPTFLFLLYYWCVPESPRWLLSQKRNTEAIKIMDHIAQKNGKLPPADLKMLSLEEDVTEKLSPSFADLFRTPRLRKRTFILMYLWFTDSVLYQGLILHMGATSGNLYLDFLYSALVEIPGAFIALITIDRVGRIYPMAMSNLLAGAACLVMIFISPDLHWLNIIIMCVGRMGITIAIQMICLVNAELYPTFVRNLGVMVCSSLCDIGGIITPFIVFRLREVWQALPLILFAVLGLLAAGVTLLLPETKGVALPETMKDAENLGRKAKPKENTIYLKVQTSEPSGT
# protocol notes: Inhibition of OCT1-mediated uptake of the cocktail substrates in HEK293 cells overexpressing human OCT1
# measurement parameters: IC50 for inhibition of fenoterol uptake, human OCT1; substrate (victim) fenoterol 0.5 μM in cocktail; mean ± SD
readout label: pIC50
Note on units: pIC50 is unitless, being -log10 of a concentration expressed in mol/L.

CNS(=O)(=O)Cc1ccc2[nH]cc(CCN(C)C)c2c1 : 3.32

Turning now to a further compound:
QUERY: Checklist item: pIC50 tested on human OCT1 (hOCT1) (Homo sapiens, UniProt O15245), entry O=C(O[C@H]1C[C@H]2CC[C@@H](C1)[N+]21CCCC1)C(O)(c1ccccc1)c1ccccc1 , value?
RESULT: 4.80

---

# protocol notes: Pharmacokinetic parameters used for estimating the potential for DDIs
# Format: in vivo, human
# measurement parameters: Iin,max=Imax+Fa×ka×D/Qh; Qh 97 L/h, Fa 1; Imax for fenoterol and ipratropium
readout label: Imax, portal (ng/mL)
Kindly answer with a numeric value in ng/mL, unit omitted.

C=C[C@H]1C[N@@]2CC[C@H]1C[C@@H]2[C@@H](O)c1ccnc2ccc(OC)cc12 : 6908
COc1ccc(CCN(C)CCCC(C#N)(c2ccc(OC)c(OC)c2)C(C)C)cc1OC (centres unmarked) : 3550
CC(C)[N+]1(C)[C@@H]2CC[C@H]1C[C@@H](OC(=O)C(CO)c1ccccc1)C2 (some centres unmarked) : 0.08

QUERY: Consider the compound shown here: O=C(O[C@H]1C[C@H]2CC[C@@H](C1)[N+]21CCCC1)C(O)(c1ccccc1)c1ccccc1 What is its recorded Imax, portal?
RESULT: 89.63

QUERY: Which Imax, portal value is on record for CC(Cc1ccc(O)cc1)NCC(O)c1cc(O)cc(O)c1 (centres unmarked) ?
RESULT: 1.23

---

# protocol notes: Pharmacokinetic parameters used for estimating the potential for DDIs
# Format: in vivo, human
# measurement parameters: human, in vivo, po; read-out: ke (converted)
readout label: k el (s⁻¹)
Give the number; s⁻¹ is assumed, so skip it.

QUERY: Any idea what its k el is? The molecule is O=C(O[C@H]1C[C@H]2CC[C@@H](C1)[N+]21CCCC1)C(O)(c1ccccc1)c1ccccc1
RESULT: 1.94e-05

---

DDI risk R, victim drug zolmitriptan overview
# assay target: UniProtKB O15245
# protocol notes: DDI risk R calculated from IC50 at human OCT1
# measurement parameters: R=1+fup×Iin,max/IC50, cutoff R ≥ 1.1
Could you keep your reply to the number by itself?

// known answers, use as guide
CC(Cc1ccc(O)cc1)NCC(O)c1cc(O)cc(O)c1 (stereo not shown) : 1.00
CNS(=O)(=O)Cc1ccc2[nH]cc(CCN(C)C)c2c1 : 1.00
O=C(O[C@H]1C[C@H]2CC[C@@H](C1)[N+]21CCCC1)C(O)(c1ccccc1)c1ccccc1 : 1.01

Consider the additional molecule presented here.
QUERY: Recorded DDI risk R, victim drug zolmitriptan for CN(C)C(=N)N=C(N)N , please?
RESULT: 1.00

---

# DDI risk R, victim drug salbutamol per entry
# assay target: OCT1 (Homo sapiens, UniProt O15245)
# protocol notes: DDI risk R calculated from IC50 at human OCT1
# measurement parameters: R=1+fup×Iin,max/IC50, cutoff R ≥ 1.1
Just the number, please.

Here's what some known entries look like.
O=C(O[C@H]1C[C@H]2CC[C@@H](C1)[N+]21CCCC1)C(O)(c1ccccc1)c1ccccc1 : 1.01
CNS(=O)(=O)Cc1ccc2[nH]cc(CCN(C)C)c2c1 : 1.00
CN(C)C(=N)N=C(N)N : 1.00

Moving on to the next compound.
QUERY: # get_value(readout='DDI risk R, victim drug salbutamol', item= CC(Cc1ccc(O)cc1)NCC(O)c1cc(O)cc(O)c1 (stereo not shown) )
RESULT: 1.00

Recorded values, source paper PMC12163485.
